experiment: Tigecycline plasma PK and % F after PO enteric-coated capsule in dogs; type: in vivo, Beagle dogs; conditions: female, beagle, dog, plasma, po, 30 mg, Tigecycline Plasma Concentration, Time (min) 0.3; PO 30 mg enteric-coated capsule with 500 mg CA and 100 mg LLC, SC430; individual dogs

>  <COMPOUND>
CN(C)c1cc(NC(=O)CNC(C)(C)C)c(O)c2c1C[C@H]1C[C@H]3[C@H](N(C)C)C(O)=C(C(N)=O)C(=O)[C@@]3(O)C(O)=C1C2=O [Tigecycline]

>  <concentration at 0.3 min>
0 ng/mL

$$$$

====

test: Tigecycline plasma PK and % F after PO enteric-coated capsule in dogs; type: in vivo, Beagle dogs; conditions: female, beagle, dog, plasma, po, 15 mg, Tigecycline Plasma Concentration, 60 min; PO 15 mg unformulated enteric-coated capsule, SC424; individual dogs

>  <MOLECULE>
CN(C)c1cc(NC(=O)CNC(C)(C)C)c(O)c2c1C[C@H]1C[C@H]3[C@H](N(C)C)C(O)=C(C(N)=O)C(=O)[C@@]3(O)C(O)=C1C2=O

>  <MEASUREMENT UNITS>
ng/mL

>  <concentration at 60 min>
0

$$$$

====

assay: Tigecycline plasma PK and % F after PO enteric-coated capsule in dogs; format: in vivo, Beagle dogs; conditions: female, beagle, dog, plasma, po, 30 mg, Tigecycline Plasma Concentration, Time (min) 8.0; PO 30 mg enteric-coated capsule with 500 mg CA and 100 mg LLC, SC430; mean

>  <MOLECULE>
CN(C)c1cc(NC(=O)CNC(C)(C)C)c(O)c2c1C[C@H]1C[C@H]3[C@H](N(C)C)C(O)=C(C(N)=O)C(=O)[C@@]3(O)C(O)=C1C2=O

>  <concentration at 8 min>
7.27 ng/mL

$$$$

====

assay: Tigecycline plasma PK and % F after PO enteric-coated capsule in dogs; type: in vivo, Beagle dogs; settings: female, beagle, dog, plasma, po, 30 mg, Tigecycline Plasma Concentration, 8.0 hr; PO 30 mg unformulated enteric-coated capsule, SC430; individual dogs
MEASUREMENT LABEL: concentration at 8 hr (ng/mL)

>  <MOLECULE>
CN(C)c1cc(NC(=O)CNC(C)(C)C)c(O)c2c1C[C@H]1C[C@H]3[C@H](N(C)C)C(O)=C(C(N)=O)C(=O)[C@@]3(O)C(O)=C1C2=O

>  <MEASUREMENT LABEL>
concentration at 8 hr

>  <OBSERVED>
0

$$$$

====

test: Tigecycline plasma PK after IV bolus in dogs; type: in vivo, Beagle dogs; conditions: female, beagle, dog, plasma, intravenous, 5 mg, Tigecycline Plasma Concentration, 40 min; 5 mg IV in PBS ([…]), SC431; mean

>  <MOLECULE>
CN(C)c1cc(NC(=O)CNC(C)(C)C)c(O)c2c1C[C@H]1C[C@H]3[C@H](N(C)C)C(O)=C(C(N)=O)C(=O)[C@@]3(O)C(O)=C1C2=O

>  <concentration at 40 min / ng/mL>
60.5

$$$$

====

test: Tigecycline plasma PK and % F after PO enteric-coated capsule in dogs; assay type: in vivo, Beagle dogs; settings: female, beagle, dog, plasma, po, 15 mg, Tigecycline Plasma Concentration, 0 min; PO 15 mg enteric-coated capsule with 500 mg CA and 100 mg LLC, SC424; mean

>  <COMPOUND>
CN(C)c1cc(NC(=O)CNC(C)(C)C)c(O)c2c1C[C@H]1C[C@H]3[C@H](N(C)C)C(O)=C(C(N)=O)C(=O)[C@@]3(O)C(O)=C1C2=O [Tigecycline]

>  <concentration at 0 min, ng/mL>
0

$$$$

====

experiment: Tigecycline plasma PK and % F after PO enteric-coated capsule in dogs; type: in vivo, Beagle dogs; details: female, beagle, dog, plasma, po, 45 mg, PO 45 mg enteric-coated capsule with 500 mg CA and 100 mg LLC (SC430); read-out: absolute % F, mean

>  <MOLECULE>
CN(C)c1cc(NC(=O)CNC(C)(C)C)c(O)c2c1C[C@H]1C[C@H]3[C@H](N(C)C)C(O)=C(C(N)=O)C(=O)[C@@]3(O)C(O)=C1C2=O

>  <bioavailability (%)>
15.5

$$$$

====

test: Tigecycline plasma PK and % F after PO enteric-coated capsule in dogs; assay type: in vivo, Beagle dogs; conditions: female, beagle, dog, plasma, po, 15 mg, Tigecycline Plasma Concentration, 150 min; PO 15 mg unformulated enteric-coated capsule, SC424; mean

>  <MOLECULE>
CN(C)c1cc(NC(=O)CNC(C)(C)C)c(O)c2c1C[C@H]1C[C@H]3[C@H](N(C)C)C(O)=C(C(N)=O)C(=O)[C@@]3(O)C(O)=C1C2=O

>  <concentration at 150 min [ng/mL]>
0

$$$$

====

assay: Tigecycline plasma PK and % F after intraduodenal (ID) injection in anesthetized rats; type: in vivo, Sprague-Dawley Rats; conditions: female, Sprague-Dawley, rat, plasma, other: intraduodenal bolus injection, 9 mg/kg, ID, PBS, 9.0 mg/kg (RA853), animal RA853-4 only; 120 min

>  <COMPOUND>
CN(C)c1cc(NC(=O)CNC(C)(C)C)c(O)c2c1C[C@H]1C[C@H]3[C@H](N(C)C)C(O)=C(C(N)=O)C(=O)[C@@]3(O)C(O)=C1C2=O [Tigecycline]

>  <concentration at 120 min>
129 ng/mL

$$$$

====

test: Tigecycline plasma PK and % F after PO enteric-coated capsule in dogs; type: in vivo, Beagle dogs; conditions: female, beagle, dog, plasma, po, 30 mg, Tigecycline Plasma Concentration, 6.0 hr; PO 30 mg unformulated enteric-coated capsule, SC430; mean
MEASUREMENT LABEL: concentration at 6 hr (ng/mL)

>  <MOLECULE>
CN(C)c1cc(NC(=O)CNC(C)(C)C)c(O)c2c1C[C@H]1C[C@H]3[C@H](N(C)C)C(O)=C(C(N)=O)C(=O)[C@@]3(O)C(O)=C1C2=O

>  <OBSERVED>
0

$$$$

====

assay: Tigecycline plasma PK after IV bolus in dogs; assay type: in vivo, Beagle dogs; conditions: female, beagle, dog, plasma, iv, […], 5 mg IV in PBS ([…]), SC431; mean; read-out: AUC(0-t)

>  <MOLECULE>
CN(C)c1cc(NC(=O)CNC(C)(C)C)c(O)c2c1C[C@H]1C[C@H]3[C@H](N(C)C)C(O)=C(C(N)=O)C(=O)[C@@]3(O)C(O)=C1C2=O

>  <AUC(0-t) / ng·h/mL>
411

$$$$

====

Assay: Tigecycline plasma PK and % F after PO enteric-coated capsule in dogs
Assay type: in vivo, Beagle dogs
Settings: female, beagle, dog, plasma, po, 30 mg, target dose 30 mg, enterically coated capsule; time scale adjusted to 4 hours; excluding animal 5256; read-out: Observed AUC(0-t)
Protocol: Adult beagle dogs weighing approximately 9 to 15 kg were used in the study. […] Room temperature was set to be maintained between approximately 20±5° C. Relative humidity was monitored but not controlled. […] The unknown concentration in dog plasma samples was determined by interpolation of the peak area ratios of analyte:internal standard versus the ratio of their nominal concentrations into the regression line obtained from calibration standards spiked in pooled dog plasma. […]
MEASUREMENT LABEL: AUC(0-t) (ng·h/mL)

>  <COMPOUND>
CN(C)c1cc(NC(=O)CNC(C)(C)C)c(O)c2c1C[C@H]1C[C@H]3[C@H](N(C)C)C(O)=C(C(N)=O)C(=O)[C@@]3(O)C(O)=C1C2=O [Tigecycline]

>  <MEASUREMENT LABEL>
AUC(0-t)

>  <OBSERVED>
214

$$$$

====

test: Tigecycline plasma PK and % F after PO enteric-coated capsule in dogs; type: in vivo, Beagle dogs; conditions: female, beagle, dog, plasma, po, 30 mg, Tigecycline Plasma Concentration, Time (min) 5.0; PO 30 mg enteric-coated capsule with 500 mg CA and 100 mg LLC, SC430; mean

>  <MOLECULE>
CN(C)c1cc(NC(=O)CNC(C)(C)C)c(O)c2c1C[C@H]1C[C@H]3[C@H](N(C)C)C(O)=C(C(N)=O)C(=O)[C@@]3(O)C(O)=C1C2=O

>  <concentration at 5 min / ng/mL>
31.8

$$$$

====

experiment: Tigecycline plasma PK and % F after intraduodenal (ID) injection in anesthetized rats; format: in vivo, Sprague-Dawley Rats; details: female, Sprague-Dawley, rat, plasma, […], RA869, ID, 400 mM CA/26 mM LLC, […]; read-out: Cmax, mean

>  <COMPOUND>
CN(C)c1cc(NC(=O)CNC(C)(C)C)c(O)c2c1C[C@H]1C[C@H]3[C@H](N(C)C)C(O)=C(C(N)=O)C(=O)[C@@]3(O)C(O)=C1C2=O [Tigecycline]

>  <Cmax>
246 ng/mL

$$$$

====

Test: Tigecycline plasma PK after IV bolus in dogs
Assay type: in vivo, Beagle dogs
Conditions: female, beagle, dog, plasma; IV bolus 1 mg (0.08 mg/kg), SC427; read-out: Tmax, mean (converted)
Procedure: Adult beagle dogs weighing approximately 9 to 15 kg were used in the study. […] Room temperature was set to be maintained between approximately 20±5° C. Relative humidity was monitored but not controlled. […] The unknown concentration in dog plasma samples was determined by interpolation of the peak area ratios of analyte:internal standard versus the ratio of their nominal concentrations into the regression line obtained from calibration standards spiked in pooled dog plasma. […]

>  <COMPOUND>
CN(C)c1cc(NC(=O)CNC(C)(C)C)c(O)c2c1C[C@H]1C[C@H]3[C@H](N(C)C)C(O)=C(C(N)=O)C(=O)[C@@]3(O)C(O)=C1C2=O [Tigecycline]

>  <Tmax>
5 min

$$$$
